# System: gene editing with Cas9
# protocol_summary: Screen of 322 new SSAP proteins, gene editing activity with Cas9 (Table 5)
# Type: cell-based
# condition_description: normalized
readout: Cas9 with SSAP activity (normalized)

[[record]]
molecule = "SSAP_223: SEQ ID NO: 392; Haloactinospora alba (protein, listed as Haloactinospora alba) GQSVTNAVAQRDTSPSGMVGKYRDDFAQVMPSHVNGAGWVRIAQGILRRDAKLAEAARNAPQSLMSALMDAAQQGLTPGTTEFYLVPRKRKGSLEVQGITGYQGEIELIYRAGAVASVVAEIVHEHDTFEWIPGKHERPIHEADWFGNRGTMVGAYAYAVMNSGSTSKVVILNQHDIEKARAMSDGADSSYSPWQKWPESMWLKTAAHRLAKWVPTSAEYRHEQERARARSEDTEIPASPDSDVVHAEIVEENDDEQAT"
recorded_measurement = 0.173


Cited source: patent US20250034594A1
